Measured values drawn from the supplement of paper PMC10567573 for this set.

B1: ADAMTS4 (parent)
chain: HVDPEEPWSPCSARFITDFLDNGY

Variants of: B1
protocolDetails: protein stability index of a GFP-peptide fusion (GPS, HEK-293T) (PSI 1-6); higher = more stable;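 note: lentivirally expressed fusions sorted by FACS into six bins by GFP to DsRed ratio, PSI derived from sequencing read proportions per bin multiplied by bin number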
testSettings: c terminus: a fixed tail appended
Use 2 as the dividing line for protein stability index, with the line itself on the YES side and lower values as NO.

>>> df
   variantdescription  discretelabel
0                D21N             NO
1                 P7D            YES
2                 W8A            YES
3                Y24W             NO
4                P10H             NO
5                L20T            YES
6                P10K            YES
7                T17F             NO
